target: HIV-1 integrase (Human immunodeficiency virus type 1 group M subtype B, UniProt P04585); assay: HIV-1 integrase inhibition assay (procedure of Burke et al.; radiolabeled duplex substrate, U5 end of HIV LTR); format: biochemical; conditions: Table 2; dipeptide derivatives of I; read-out: Anti-integrase activity (IC50)
The following compounds are shown together with reported IC50 values.
quantity_measured: IC50 (µM)

compound_smiles: O=C(O)CNC(=O)[C@H](Cc1ccc(O)cc1)NC(=O)c1ccc(O)c(O)c1
measured_target: HIV-1 integrase (Human immunodeficiency virus type 1 group M subtype B, UniProt P04585)
unit_descriptor: µM
bound_operator: >
readout_value: 200
--
compound_smiles: O=C(N[C@@H](Cc1ccc(O)cc1)C(=O)N[C@@H](Cc1ccc(O)cc1)C(=O)NCCc1ccc(O)c(O)c1)c1ccc(O)c(O)c1
measured_target: HIV-1 integrase (Human immunodeficiency virus type 1 group M subtype B, UniProt P04585)
unit_descriptor: µM
bound_operator: =
readout_value: 17
--
compound_smiles: O=C(CNC(=O)c1ccc(O)c(O)c1)N[C@@H](Cc1ccc(O)cc1)C(=O)O
measured_target: HIV-1 integrase (Human immunodeficiency virus type 1 group M subtype B, UniProt P04585)
unit_descriptor: µM
bound_operator: >
readout_value: 200
--
compound_smiles: O=C(N[C@@H](Cc1ccc(O)cc1)C(=O)N[C@@H](Cc1ccc(O)cc1)C(=O)O)c1ccc(O)c(O)c1
measured_target: HIV-1 integrase (Human immunodeficiency virus type 1 group M subtype B, UniProt P04585)
unit_descriptor: µM
bound_operator: =
readout_value: 177
--
compound_smiles: O=C(C[C@H](NC(=O)[C@H](Cc1ccc(O)cc1)NC(=O)c1ccc(O)c(O)c1)C(=O)NCCc1ccc(O)c(O)c1)OCc1ccccc1
measured_target: HIV-1 integrase (Human immunodeficiency virus type 1 group M subtype B, UniProt P04585)
unit_descriptor: µM
bound_operator: =
readout_value: 20

----------
target: HIV-1 integrase (Human immunodeficiency virus type 1 group M subtype B, UniProt P04585); assay: HIV-1 integrase inhibition assay (based on procedure of Hazuda et al.); type: biochemical; settings: Table 3; Nα-caffeoyl derivative of the root amino acid, general formula I; read-out: Anti-integrase activity (IC50) Nα-Caffeoyl derivative
pIC50: −log10 of the molar value.
Use 6 as the dividing line for pIC50, with the line itself on the class 1 side and lower values as class 0.

compound: O=C(/C=C/c1ccc(O)c(O)c1)N[C@@H](CC(=O)OCc1ccccc1)C(=O)NCCc1ccc(O)c(O)c1
assigned_label: class 0

compound: O=C(C=Cc1ccc(O)c(O)c1)NC(CC(=O)NCCc1ccc(O)c(O)c1)C(=O)OCc1ccccc1 (centres unmarked)
assigned_label: class 0

compound: O=C(C=Cc1ccc(O)c(O)c1)NC(CCC(=O)NCCc1ccc(O)c(O)c1)C(=O)NCCc1ccc(O)c(O)c1 (centres unmarked)
assigned_label: class 1

compound: O=C(/C=C/c1ccc(O)c(O)c1)N[C@@H](CO)C(=O)NCCc1ccc(O)c(O)c1
assigned_label: class 1

compound: O=C(O)C[C@H](NC(=O)/C=C/c1ccc(O)c(O)c1)C(=O)NCCc1ccc(O)c(O)c1
assigned_label: class 0

compound: O=C(/C=C/c1ccc(O)c(O)c1)N[C@@H](Cc1ccc(O)c(O)c1)C(=O)NCCc1ccc(O)c(O)c1
assigned_label: class 1

compound: O=C(/C=C/c1ccc(O)c(O)c1)N[C@@H](Cc1ccc(O)c(O)c1)C(=O)NCc1ccc(O)c(O)c1
assigned_label: class 1

compound: O=C(/C=C/c1ccc(O)c(O)c1)N[C@@H](Cc1ccc(O)cc1)C(=O)NCc1ccc(O)c(O)c1
assigned_label: class 0

----------
Collected IC50 values appear next to each entry.
Target: HIV-1 integrase (Human immunodeficiency virus type 1 group M subtype B)
Test: HIV-1 integrase inhibition assay (procedure of Burke et al.; radiolabeled duplex substrate, U5 end of HIV LTR)
Assay type: biochemical
Details: Table 1; 3,4-dihydroxy derivative of the root amino acid, formula Ic; read-out: Anti-integrase activity (IC50) 3,4-dihydroxy derivative
Description: For the purposes of Table 1 (and Table 2) the HIV-1 integrase inhibition assay was carried out following a known procedure (Burke, Jr. T. R. et al., J. Med. Chem. 38, 4171-4178 (1995)). A suitable radiolabeled duplex substrate corresponding to the U5 end of the HIV LTR was used.

compound: O=C(N[C@H](Cc1ccc(O)cc1)C(=O)NCCc1ccc(O)c(O)c1)c1ccc(O)c(O)c1 [Example 10]
unit_descriptor: µM
IC50: 67

compound: O=C(NCCc1ccc(O)c(O)c1)[C@@H]1CCCN1C(=O)c1ccc(O)c(O)c1 [Example 28]
unit_descriptor: µM
IC50: 80

compound: O=C(N[C@@H](Cc1ccc(O)cc1)C(=O)NCCc1ccc(O)c(O)c1)c1ccc(O)c(O)c1 [Example 12]
unit_descriptor: µM
IC50: 8

compound: O=C(N[C@@H](Cc1ccccc1)C(=O)NCCc1ccc(O)c(O)c1)c1ccc(O)c(O)c1 [Example 14]
unit_descriptor: µM
IC50: 45

compound: O=C(N[C@@H](Cc1c[nH]c2ccccc12)C(=O)NCCc1ccc(O)c(O)c1)c1ccc(O)c(O)c1 [Example 30]
unit_descriptor: µM
IC50: 17

compound: O=C(CC[C@H](NC(=O)c1ccc(O)c(O)c1)C(=O)NCCc1ccc(O)c(O)c1)NCCc1ccc(O)c(O)c1 [Example 22]
unit_descriptor: µM
IC50: 11

compound: O=C(NC(Cc1ccc(O)c(F)c1)C(=O)NCCc1ccc(O)c(O)c1)c1ccc(O)c(O)c1 (racemic) [Example 48]
unit_descriptor: µM
IC50: 1.4

compound: C[C@H](NC(=O)c1ccc(O)c(O)c1)C(=O)NCCc1ccc(O)c(O)c1 [Example 20]
unit_descriptor: µM
IC50: 71

compound: O=C(NC(Cc1cccc(O)c1)C(=O)NCCc1ccc(O)c(O)c1)c1ccc(O)c(O)c1 (racemic) [Example 50]
unit_descriptor: µM
IC50: 1.3

compound: O=C(N[C@@H](Cc1ccc(O)c(O)c1)C(=O)NCCc1ccc(O)c(O)c1)c1ccc(O)c(O)c1 [Example 16]
unit_descriptor: µM
IC50: 8

compound: O=C(N[C@@H](Cc1c[nH]cn1)C(=O)NCCc1ccc(O)c(O)c1)c1ccc(O)c(O)c1 [Example 33]
unit_descriptor: µM
IC50: 0.1

compound: CC(C)C[C@H](NC(=O)c1ccc(O)c(O)c1)C(=O)NCCc1ccc(O)c(O)c1 [Example 26]
unit_descriptor: µM
IC50: 45

compound: O=C(CC[C@H](NC(=O)c1ccc(O)c(O)c1)C(=O)OCc1ccccc1)NCCc1ccc(O)c(O)c1 [Example 49]
unit_descriptor: µM
IC50: 2.2

compound: O=C(CC[C@H](NC(=O)c1ccc(O)c(O)c1)C(=O)NCCc1ccc(O)c(O)c1)OCc1ccccc1 [Example 23]
unit_descriptor: µM
IC50: 26

----------
// pIC50 lookup, one value per entry
target: HIV-1 integrase (Human immunodeficiency virus type 1 group M subtype B, UniProt P04585); experiment: HIV-1 integrase inhibition assay (based on procedure of Hazuda et al.); assay type: biochemical; conditions: Table 3; other Nα-3,4-dihydroxyphenyl derivative of the root amino acid, general formula I; read-out: Anti-integrase activity (IC50) Other Nα-3,4-dihydroxyphenyl derivative
pIC50: −log10 of the molar value.

molecule: O=C(N[C@@H](Cc1ccc(O)cc1)C(=O)NCc1ccc(O)c(O)c1)c1ccc(O)c(O)c1 [Example 56]
pIC50: 6.11

molecule: O=C(N[C@@H](CS)C(=O)NCCc1ccc(O)c(O)c1)c1ccc(O)c(O)c1 [Example 58]
pIC50: 6.68

molecule: O=C(Cc1ccc(O)c(O)c1)N[C@@H](Cc1ccc(O)c(O)c1)C(=O)NCCc1ccc(O)c(O)c1 [Example 57]
pIC50: 6.97

molecule: O=C(CC[C@H](NC(=O)c1ccc(O)c(O)c1)C(=O)O)NCCc1ccc(O)c(O)c1 [Example 63]
pIC50: 5.55

----------
biological target: HIV-1 integrase (Human immunodeficiency virus type 1 group M subtype B, UniProt P04585); test: HIV-1 integrase inhibition assay (procedure of Burke et al.; radiolabeled duplex substrate, U5 end of HIV LTR); format: biochemical; conditions: Table 1; 4-hydroxy derivative of the root amino acid, formula Ic; read-out: Anti-integrase activity (IC50) 4-hydroxy derivative
pIC50: −log10 of the molar value.
# Lookup of reported pIC50 keyed by entry
quantity_measured: pIC50

molecule: O=C(NCCc1ccc(O)c(O)c1)[C@@H]1CCCN1C(=O)c1ccc(O)cc1 [Example 27]
readout_value: < 3.70

molecule: O=C(N[C@@H](Cc1ccccc1)C(=O)NCCc1ccc(O)c(O)c1)c1ccc(O)cc1 [Example 13]
readout_value: < 3.70

molecule: CC(C)C[C@H](NC(=O)c1ccc(O)cc1)C(=O)NCCc1ccc(O)c(O)c1 [Example 25]
readout_value: < 3.70

The measured values listed here are drawn from patent US6362165B1.
